- tested on: TGFBR1 (ALK5) (Homo sapiens)
- Sequence (P36897 34-503): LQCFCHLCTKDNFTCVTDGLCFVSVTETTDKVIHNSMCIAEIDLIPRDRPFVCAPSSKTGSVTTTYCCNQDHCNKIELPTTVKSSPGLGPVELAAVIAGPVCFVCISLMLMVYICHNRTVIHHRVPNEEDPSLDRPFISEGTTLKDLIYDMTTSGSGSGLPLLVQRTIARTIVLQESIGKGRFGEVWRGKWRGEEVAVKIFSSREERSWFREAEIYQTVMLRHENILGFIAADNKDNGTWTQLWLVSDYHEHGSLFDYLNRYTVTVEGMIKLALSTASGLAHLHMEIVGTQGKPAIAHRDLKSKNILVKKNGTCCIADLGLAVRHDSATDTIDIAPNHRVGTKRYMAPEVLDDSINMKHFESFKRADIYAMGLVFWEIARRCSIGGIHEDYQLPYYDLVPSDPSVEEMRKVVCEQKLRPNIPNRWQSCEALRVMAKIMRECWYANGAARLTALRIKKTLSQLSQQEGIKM
- test: ALK5 kinase assay (LanthaScreen Terbium labeled TR-FRET)
- Assay type: biochemical
- condition: Table 3; read-out: IC50 (ALK5)
Where a name gives a salt, the structure may show the parent alone.
Could you please report measured IC50 for the items listed next?
Respond numerically; units are nM and should not be typed.

Given item CC(C)c1cnc(-c2ccc(F)cc2)nc1Nc1ccnc2[nH]cc(N3CCNC[C@H]3C)c12 [Compound No. 8, hydrochloride] , the value recorded as its IC50 is 95

compound CC(C)c1cnc(-c2ccccc2)nc1Nc1ccnc2[nH]cc(C(=O)C(N)=O)c12 [Compound No. 26, hydrochloride] , IC50 observed: 602

Query CC(C)c1cnc(-c2ccc(F)cc2)nc1Nc1ccnc2[nH]cc(C(=O)C(=O)N3CCNCC3)c12 [Compound No. 23, hydrochloride] yields IC50 of 671

The recorded IC50 for entry CC(C)c1cnc(-c2ccc(F)cc2)cc1Nc1ccnc2[nH]cc(C(=O)C(N)=O)c12 [Compound No. 19, hydrochloride] equals 278

Form: compound = CC(C)c1cnc(-c2ccc(F)cc2)nc1Nc1ccnc2[nH]cc(N3CCNC[C@@H]3C)c12 [Compound No. 7, hydrochloride] ; IC50 = 155

###

- tested on: MAPK14/p38α kinase (Homo sapiens, UniProt Q16539)
- Construct: purchased ThermoFisher PV3304
- Sequence (Q16539 whole entry): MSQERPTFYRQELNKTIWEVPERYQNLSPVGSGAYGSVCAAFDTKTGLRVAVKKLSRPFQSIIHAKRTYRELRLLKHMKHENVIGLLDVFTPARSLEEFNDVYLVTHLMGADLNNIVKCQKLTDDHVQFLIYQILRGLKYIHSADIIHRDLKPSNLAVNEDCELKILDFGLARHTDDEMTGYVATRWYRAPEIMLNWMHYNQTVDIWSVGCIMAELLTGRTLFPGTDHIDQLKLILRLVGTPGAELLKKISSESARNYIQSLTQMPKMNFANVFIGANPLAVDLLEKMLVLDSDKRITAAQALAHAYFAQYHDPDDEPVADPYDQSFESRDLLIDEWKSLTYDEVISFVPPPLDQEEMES
- test: MAPK14/p38α kinase assay (LanthaScreen TR-FRET)
- Type: biochemical
- condition: 100 nM concentration of compound; Table 4; read-out: Enzyme Activity MAPK14 (p38alpha) % Inh at 100 nM
Structures can show the parent of a compound that is named as a salt.
inhibition at 0.1 µM of 20% or higher: Satisfied. Under 20%: Not satisfied.

// inclusive: inhibition at 0.1 µM at least 20%? input: CC(C)c1cnc(-c2ccc(F)cc2)nc1Nc1ccnc2[nH]cc(N3CCN[C@H](C)C3)c12 [Compound No. 9, hydrochloride]
Satisfied

I'd appreciate it if you could say whether CC(C)c1cnc(-c2ccc(F)cc2)nc1Nc1ccnc2[nH]cc(N3CCN[C@@H](C)C3)c12 [Compound No. 11, hydrochloride] has inhibition at 0.1 µM at least equal to 20%.
Not satisfied

Could you please find out whether CC(C)c1cnc(-c2ccc(F)cc2)nc1Nc1ccnc2[nH]cc(N3CCNC(=O)C3)c12 [Compound No. 10, formate] has inhibition at 0.1 µM that meets 20% or exceeds it?
Satisfied

Answer whether inhibition at 0.1 µM of CC(C)c1cnc(-c2ccc(F)cc2)nc1Nc1cccc2[nH]cc(C(=O)C(N)=O)c12 [Compound No. 28, hydrochloride] is greater than or equal to 20%.
Satisfied

Dear colleague, could you confirm whether CC(C)c1ccc(-c2ccc(F)cc2)nc1Nc1ccnc2[nH]cc(C(=O)C(N)=O)c12 [Compound No. 27, hydrochloride] has inhibition at 0.1 µM at or above 20%?
Not satisfied

# bool: inhibition at 0.1 µM of `CC(C)c1cnc(-c2ccc(F)cc2)nc1Nc1ccnc2[nH]cc(N3CCC(C(N)=O)CC3)c12` >= 20%
Satisfied

###

- tested on: MAPK14/p38α kinase (Homo sapiens)
- Construct: purchased ThermoFisher PV3304
- test: MAPK14/p38α kinase assay (LanthaScreen TR-FRET)
- Type: biochemical
- condition: 100 nM concentration of compound; read-out: Enzyme Activity MAPK14 (p38 alpha) % Inhibition at 100 nM
Structures can show the parent of a compound that is named as a salt.
Could you please report measured inhibition at 0.1 µM for the items listed next?
Report as a plain number; the unit % is understood.

Bench note, MAPK14/p38α kinase (Homo sapiens): entry CC(C)c1cnc(-c2ccc(F)cc2)nc1Nc1ccnc2[nH]cc(N3CCN(C)CC3)c12 [Compound No. 2, hydrochloride] , its inhibition at 0.1 µM = 19

Query CC(C)c1cnc(-c2ccc(F)cc2)nc1Nc1ccnc2[nH]cc(N3CCNCC3)c12 [Compound No. 1, hydrochloride] on MAPK14/p38α kinase (Homo sapiens); inhibition at 0.1 µM returned: 61

// assay MAPK14/p38α kinase (Homo sapiens), entry CC(C)c1cnc(-c2ccc(F)cc2)nc1Nc1ccnc2[nH]cc(N3CCOCC3)c12 [Compound No. 5, hydrochloride] , inhibition at 0.1 µM value = 7

For the compound CC(C)c1cnc(-c2ccc(F)cc2)nc1Nc1ccnc2[nH]cc(N3CCNCC3C)c12 (stereo not drawn) [Compound No. 4, hydrochloride] , the measured inhibition at 0.1 µM on MAPK14/p38α kinase (Homo sapiens) was 72

Entry CC(C)c1cnc(-c2ccc(F)cc2)nc1Nc1ccnc2[nH]cc(N3CCCCC3)c12 [Compound No. 3, hydrochloride] under MAPK14/p38α kinase (Homo sapiens) had inhibition at 0.1 µM of 42

For CC(C)c1cnc(-c2ccc(F)cc2)nc1Nc1ccnc2[nH]cc(-n3cncn3)c12 [Compound No. 6, hydrochloride] on MAPK14/p38α kinase (Homo sapiens), measured inhibition at 0.1 µM was 0

###

So I've got a bunch of compounds here, and I need their pIC50 values.
- tested on: MAPK14/p38α kinase (Homo sapiens, UniProt Q16539)
- test: MAPK14/p38α kinase assay (LanthaScreen TR-FRET)
- condition: Table 3; read-out: IC50 (P38 alpha)
Where a name gives a salt, the structure may show the parent alone.
Keep in mind that pIC50 stands for -log10 of concentration in molar terms.

Entry CC(C)c1cnc(-c2ccc(F)cc2)nc1Nc1ccnc2[nH]cc(C(=O)C(N)=O)c12 [Compound No. 17, hydrochloride] — recorded pIC50 = 6.51

// pIC50 value for CC(C)c1cnc(-c2ccc(F)cc2)cc1Nc1ccnc2[nH]cc(C(=O)C(N)=O)c12 [Compound No. 19, hydrochloride] : 5.75

Entry under test: CC(C)c1cnc(-c2ccc(F)cc2)nc1Nc1ccnc2[nH]cc(N3CCNC[C@H]3C)c12 [Compound No. 8, hydrochloride] . Its pIC50 was 7.21

Measured pIC50 of CC(C)c1cnc(-c2ccccc2)nc1Nc1ccnc2[nH]cc(C(=O)C(N)=O)c12 [Compound No. 26, hydrochloride] : 6.61

Record CNC(=O)C(=O)c1c[nH]c2nccc(Nc3nc(-c4cc(Cl)ccc4F)ncc3C(C)C)c12 [Compound No. 18, hydrochloride] , field pIC50: 6.46

Noted for CC(C)c1cnc(-c2ccc(F)cc2)nc1Nc1ccnc2[nH]cc(N3CCNC[C@@H]3C)c12 [Compound No. 7, hydrochloride] : its pIC50 reads 7.38

pIC50 in this record for CC(C)c1cnc(-c2ccc(F)cc2)nc1Nc1ccnc2[nH]cc(C(=O)C(=O)N3CCNCC3)c12 [Compound No. 23, hydrochloride] : 5.89

###

- Tested on: MIA PaCa-2
- test: Cell viability assay (resazurin, 96 hr) in MIA PaCa-2
- Type: cell-based
- condition: Homo sapiens; MIA PaCa-2 pancreatic cell line, 96 hr exposure; read-out: MiaPaCa-2_Cell Viability_IC50
Structures can show the parent of a compound that is named as a salt.
readout kind: IC50 (µM)
Use µM as the unit, but write only the number.

Consider CC(C)c1cnc(-c2ccc(F)cc2)nc1Nc1ccnc2[nH]cc(C3(O)CCNCC3)c12 [Compound No. 13, hydrochloride] . Its measured IC50 is 10.9

Please fill in: IC50 reported for CC(C)c1cnc(-c2ccc(F)cc2)nc1Nc1ccnc2[nH]cc(N3CCN[C@@H](C)C3)c12 [Compound No. 11, hydrochloride] = 2.04

Note to self: IC50 recorded for `CC(C)c1cnc(-c2ccc(F)cc2)nc1Nc1ccnc2[nH]cc(N3CCC(C(N)=O)CC3)c12` was 1.78

// sample CC(C)c1cnc(-c2ccc(F)cc2)nc1Nc1ccnc2[nH]cc(N3CCOCC3C)c12 (centres unmarked) [Compound No. 14, hydrochloride] , its IC50 was 11.1

Briefly, IC50 measured for CC(C)c1cnc(-c2ccc(F)cc2)nc1Nc1ccnc2[nH]cc(N3CCNC(=O)C3)c12 [Compound No. 10, formate] : 3.46

IC50 for CC(C)c1cnc(-c2ccc(F)cc2)nc1Nc1ccnc2[nH]cc(N3CCC(N)CC3)c12 [Compound No. 15, hydrochloride] is 5.5

###

- System: MIA PaCa-2
- test: Cell viability assay (resazurin, 96 hr) in MIA PaCa-2
- Assay type: cell-based
- condition: Homo sapiens; MIA PaCa-2 pancreatic cell line, 96 hr exposure; read-out: MiaPaCa-2_Cell Viability_IC50
Structures can show the parent of a compound that is named as a salt.
readout kind: pIC50
Expect pIC50 as a plain number equal to -log10 of the molar concentration.

So, CC(C)c1cnc(-c2ccccc2)nc1Nc1ccnc2[nH]cc(C(=O)C(N)=O)c12 [Compound No. 26, hydrochloride] ? Its pIC50 was 5.66

So for CC(C)c1cnc(-c2ccc(F)cc2)nc1Nc1ccnc2[nH]cc(N3CCNCC3C)c12 (stereo not shown) [Compound No. 4, hydrochloride] , the logged pIC50 turned out to be 5.81

pIC50 in this record for CC(C)c1cnc(-c2ccc(F)cc2)nc1Nc1ccnc2[nH]cc(N3CCN(C)CC3)c12 [Compound No. 2, hydrochloride] : 5.11

Memo: CC(C)c1cnc(-c2ccc(F)cc2)nc1Nc1ccnc2[nH]cc(C(=O)C(=O)N3CCNCC3)c12 [Compound No. 23, hydrochloride] , reported pIC50: 5.95

Please fill in: pIC50 reported for CC(C)c1cnc(-c2ccc(F)cc2)nc1Nc1ccnc2[nH]cc(C(=O)C(N)=O)c12 [Compound No. 17, hydrochloride] = 6.12

Per the record, CC(C)c1cnc(-c2ccc(F)cc2)nc1Nc1ccnc2[nH]cc(-n3cncn3)c12 [Compound No. 6, hydrochloride] has pIC50 of 6.18
